Recorded values, source ChEMBL document CHEMBL1158551.

Would you mind telling me the reported MBC of each entry?
# Test system: Staphylococcus aureus
# ASSAY_METHOD_TEXT: Antibacterial activity against methicillin-[…] Staphylococcus aureus ATCC 29213 by broth microdilution method
# Format: functional
State the answer as a number, implicitly in µg/mL.

# assay system Staphylococcus aureus: give MBC of "COC(=O)[C@H]1NC(=O)[C@H]2NC(=O)[C@H](NC(=O)[C@@H]3NC(=O)[C@H]4NC(=O)[C@H](NC(=O)[C@H](N=[N+]=[N-])c5ccc(O)c(c5)Oc5cc4cc(O)c5C)[C@H](O)c4ccc(cc4)Oc4cc3cc(c4O)Oc3ccc(cc3)[C@H]2O)c2ccc(O)c(c2)-c2c(O)cc(O)cc21"
2

# assay system Staphylococcus aureus: give MBC of "COC(=O)[C@@H]1NC(=O)[C@H]2NC(=O)[C@H](NC(=O)[C@@H]3NC(=O)[C@H]4NC(=O)[C@H](NC(=O)[C@H](n5cc(CO[C@H]6O[C@H](COC(C)=O)[C@@H](OC(C)=O)[C@H](OC(C)=O)[C@@H]6OC(C)=O)nn5)c5ccc(O)c(c5)Oc5cc4cc(O)c5C)[C@H](O)c4ccc(cc4)Oc4cc3cc(c4O)Oc3ccc(cc3)[C@H]2O)c2ccc(O)c(c2)-c2c(O)cc(O)cc21"
4

# assay system Staphylococcus aureus: give MBC of "COC(=O)[C@@H]1NC(=O)[C@H]2NC(=O)[C@H](NC(=O)[C@@H]3NC(=O)[C@H]4NC(=O)[C@H](NC(=O)[C@H](n5cc(CO[C@H]6O[C@H](COC(C)=O)[C@@H](OC(C)=O)[C@H](OC(C)=O)[C@H]6NC(C)=O)nn5)c5ccc(O)c(c5)Oc5cc4cc(O)c5C)[C@H](O)c4ccc(cc4)Oc4cc3cc(c4O)Oc3ccc(cc3)[C@H]2O)c2ccc(O)c(c2)-c2c(O)cc(O)cc21"
256

# assay system Staphylococcus aureus: give MBC of "COC(=O)[C@@H]1NC(=O)[C@H]2NC(=O)[C@H](NC(=O)[C@@H]3NC(=O)[C@H]4NC(=O)[C@H](NC(=O)[C@H](n5cc(CO[C@H]6O[C@H](CO)[C@@H](O[C@H]7O[C@H](CO)[C@@H](O)[C@H](O)[C@H]7O)[C@H](O)[C@H]6O)nn5)c5ccc(O)c(c5)Oc5cc4cc(O)c5C)[C@H](O)c4ccc(cc4)Oc4cc3cc(c4O)Oc3ccc(cc3)[C@H]2O)c2ccc(O)c(c2)-c2c(O)cc(O)cc21"
256

# assay system Staphylococcus aureus: give MBC of "COC(=O)[C@@H]1NC(=O)[C@H]2NC(=O)[C@H](NC(=O)[C@@H]3NC(=O)[C@H]4NC(=O)[C@H](NC(=O)[C@H](n5cc(CO[C@H]6O[C@H](CO)[C@@H](O)[C@H](O)[C@H]6O)nn5)c5ccc(O)c(c5)Oc5cc4cc(O)c5C)[C@H](O)c4ccc(cc4)Oc4cc3cc(c4O)Oc3ccc(cc3)[C@H]2O)c2ccc(O)c(c2)-c2c(O)cc(O)cc21"
256

# assay system Staphylococcus aureus: give MBC of "COC(=O)[C@@H]1NC(=O)[C@H]2NC(=O)[C@H](NC(=O)[C@@H]3NC(=O)[C@H]4NC(=O)[C@H](NC(=O)[C@H](n5cc(CO[C@H]6O[C@H](COC(C)=O)[C@@H](O[C@H]7O[C@H](COC(C)=O)[C@@H](OC(C)=O)[C@H](OC(C)=O)[C@H]7OC(C)=O)[C@H](OC(C)=O)[C@H]6OC(C)=O)nn5)c5ccc(O)c(c5)Oc5cc4cc(O)c5C)[C@H](O)c4ccc(cc4)Oc4cc3cc(c4O)Oc3ccc(cc3)[C@H]2O)c2ccc(O)c(c2)-c2c(O)cc(O)cc21"
4

# assay system Staphylococcus aureus: give MBC of "COC(=O)[C@H]1NC(=O)[C@H]2NC(=O)[C@H](NC(=O)[C@@H]3NC(=O)[C@H]4NC(=O)[C@H](NC(=O)[C@H](n5cc(CO[C@@H]6O[C@@H](C)[C@H](O)[C@@H](O)[C@H]6O)nn5)c5ccc(O)c(c5)Oc5cc4cc(O)c5C)[C@H](O)c4ccc(cc4)Oc4cc3cc(c4O)Oc3ccc(cc3)[C@H]2O)c2ccc(O)c(c2)-c2c(O)cc(O)cc21"
8

====

# Test system: Staphylococcus epidermidis
# ASSAY_METHOD_TEXT: Antibacterial activity against biofilm positive Staphylococcus epidermidis ATCC 35984
# Format: functional
Would you mind telling me the reported MIC of each entry?
State the answer as a number, implicitly in µg/mL.

# assay system Staphylococcus epidermidis: give MIC of "COC(=O)[C@H]1NC(=O)[C@H]2NC(=O)[C@H](NC(=O)[C@@H]3NC(=O)[C@H]4NC(=O)[C@H](NC(=O)[C@H](N=[N+]=[N-])c5ccc(O)c(c5)Oc5cc4cc(O)c5C)[C@H](O)c4ccc(cc4)Oc4cc3cc(c4O)Oc3ccc(cc3)[C@H]2O)c2ccc(O)c(c2)-c2c(O)cc(O)cc21"
32

# assay system Staphylococcus epidermidis: give MIC of "COC(=O)[C@@H]1NC(=O)[C@H]2NC(=O)[C@H](NC(=O)[C@@H]3NC(=O)[C@H]4NC(=O)[C@H](NC(=O)[C@H](n5cc(CO[C@H]6O[C@H](CO)[C@@H](O)[C@H](O)[C@H]6O)nn5)c5ccc(O)c(c5)Oc5cc4cc(O)c5C)[C@H](O)c4ccc(cc4)Oc4cc3cc(c4O)Oc3ccc(cc3)[C@H]2O)c2ccc(O)c(c2)-c2c(O)cc(O)cc21"
2

# assay system Staphylococcus epidermidis: give MIC of "COC(=O)[C@H]1NC(=O)[C@H]2NC(=O)[C@H](NC(=O)[C@@H]3NC(=O)[C@H]4NC(=O)[C@H](NC(=O)[C@H](n5cc(CO[C@@H]6O[C@@H](C)[C@H](O)[C@@H](O)[C@H]6O)nn5)c5ccc(O)c(c5)Oc5cc4cc(O)c5C)[C@H](O)c4ccc(cc4)Oc4cc3cc(c4O)Oc3ccc(cc3)[C@H]2O)c2ccc(O)c(c2)-c2c(O)cc(O)cc21"
16

====

# Tested on: Staphylococcus epidermidis
# ASSAY_METHOD_TEXT: Antibacterial activity against biofilm positive Staphylococcus epidermidis ATCC 35984
# Type: functional
Would you mind telling me the reported MIC of each entry?

Write down MIC measured for item "COC(=O)[C@@H]1NC(=O)[C@H]2NC(=O)[C@H](NC(=O)[C@@H]3NC(=O)[C@H]4NC(=O)[C@H](NC(=O)[C@H](n5cc(CO[C@H]6O[C@H](CO)[C@@H](O[C@H]7O[C@H](CO)[C@@H](O)[C@H](O)[C@H]7O)[C@H](O)[C@H]6O)nn5)c5ccc(O)c(c5)Oc5cc4cc(O)c5C)[C@H](O)c4ccc(cc4)Oc4cc3cc(c4O)Oc3ccc(cc3)[C@H]2O)c2ccc(O)c(c2)-c2c(O)cc(O)cc21"
4 µg/mL

Write down MIC measured for item "COC(=O)[C@@H]1NC(=O)[C@H]2NC(=O)[C@H](NC(=O)[C@@H]3NC(=O)[C@H]4NC(=O)[C@H](NC(=O)[C@H](n5cc(CO[C@H]6O[C@H](COC(C)=O)[C@@H](OC(C)=O)[C@H](OC(C)=O)[C@H]6OC(C)=O)nn5)c5ccc(O)c(c5)Oc5cc4cc(O)c5C)[C@H](O)c4ccc(cc4)Oc4cc3cc(c4O)Oc3ccc(cc3)[C@H]2O)c2ccc(O)c(c2)-c2c(O)cc(O)cc21"
8 µg/mL

Write down MIC measured for item "COC(=O)[C@@H]1NC(=O)[C@H]2NC(=O)[C@H](NC(=O)[C@@H]3NC(=O)[C@H]4NC(=O)[C@H](NC(=O)[C@H](n5cc(CO[C@H]6O[C@H](COC(C)=O)[C@@H](OC(C)=O)[C@H](OC(C)=O)[C@@H]6OC(C)=O)nn5)c5ccc(O)c(c5)Oc5cc4cc(O)c5C)[C@H](O)c4ccc(cc4)Oc4cc3cc(c4O)Oc3ccc(cc3)[C@H]2O)c2ccc(O)c(c2)-c2c(O)cc(O)cc21"
4 µg/mL
